Reference for the values: the supplement of paper PMC6089552

Documented cell viability (log2) across a set of compounds
System: A673/TR/shEF
Protocol: cell viability (LOESS-normalised, relative to median of negative controls) (log2 ratio); higher = more viable cells (less compound effect), active = hit call of the paper (over 3 MAD below the median)
Measurement parameters: 2.5 µM; library screen: screen1; EWS-FLI1 expression: low (doxycycline-induced shRNA knockdown); treatment time: 72 h
Screen size: about 3,200 compounds; about 300 (9.4%) showed activity. Shown is part of a subset that was picked to be rich in actives.
Metric: cell viability (log2)

>  <Compound>
Cc1ccc(NC(=O)c2cccc(N(C)C)c2)cc1NC(=O)c1ccc(O)cc1

>  <Value observed>
0.168

$$$$
>  <Compound>
CC(C)c1c(O)ccc2c1CCC1[C@@](C)(C(=O)O)CCC[C@]21C (stereo not given in full)

>  <Value observed>
0.234

$$$$
>  <Compound>
CN1/C(=C(\O)Nc2ccccn2)C(=O)c2ccccc2S1(=O)=O

>  <Value observed>
0.148

$$$$
>  <Compound>
O=c1cc(-c2ccccc2)oc2c(O)c(O)ccc12

>  <Value observed>
0.0489

$$$$
>  <Compound>
Nc1ncnc2c1ncn2[C@@H]1O[C@H](COP(=O)(O)O)[C@@H](O)[C@H]1O

>  <Value observed>
0.117

$$$$
>  <Compound>
O=c1c(O)c(-c2ccc(O)c(O)c2)oc2cc(O)cc(O)c12

>  <Value observed>
0.0969

$$$$
>  <Compound>
O=c1c(O)c(-c2cc(O)c(O)c(O)c2)oc2cc(O)cc(O)c12

>  <Value observed>
0.0582

$$$$
>  <Compound>
CC(=O)Nc1cccc(O)c1

>  <Value observed>
-0.0215

$$$$
>  <Compound>
CC(=O)Oc1cc(C)c2c(c1C(OC(C)=O)OC(C)=O)Oc1c(c(C)c(OC(C)=O)c3c1C(OC(C)=O)OC3=O)OC2=O (stereo not given)

>  <Value observed>
0.133

$$$$
>  <Compound>
C=C1C2CC[C@@]3(C)[C@H](c4ccoc4)OC(=O)C[C@]13O[C@H]1C[C@H](OC(C)=O)C(C)(C)[C@H](CC(=O)OC)[C@@]21C

>  <Value observed>
0.192

$$$$
>  <Compound>
NCCC(=O)N[C@@H](Cc1cnc[nH]1)C(=O)O

>  <Value observed>
0.084

$$$$
>  <Compound>
CC(C)CCC[C@@H](C)[C@H]1CC[C@H]2[C@@H]3CC[C@@H]4C[C@H](O)CC[C@]4(C)[C@H]3CC[C@]12C

>  <Value observed>
0.0609

$$$$
>  <Compound>
COc1ccc(NC(=O)/C(=C/c2cccnc2)NC(=O)c2cccs2)cc1

>  <Value observed>
0.101

$$$$
>  <Compound>
N[C@@H](CSCSC[C@H](N)C(=O)O)C(=O)O

>  <Value observed>
0.147

$$$$
>  <Compound>
COc1cc(CN2CCN(Cc3cccc(F)c3)CC2)cc2c1OCO2

>  <Value observed>
0.0566

$$$$
>  <Compound>
O=c1cc(N2CCOCC2)oc2c(-c3ccccc3)cccc12

>  <Value observed>
0.0932

$$$$
>  <Compound>
COC(=O)[C@@H]1OC(=O)C2OC23[C@@]1(C)CCC1[C@]2(C)C(C[C@@H](O)[C@]13C)C(C)(C)[C@H](OC(C)=O)C[C@@H]2OC(C)=O (stereo not given in full)

>  <Value observed>
0.0969

$$$$
>  <Compound>
C/C=C(/C)C(=O)O[C@@H]1c2c(ccc3ccc(=O)oc23)OC(C)(C)[C@@H]1OC(C)=O

>  <Value observed>
0.0803

$$$$
>  <Compound>
OC[C@@H](O)C(O)[C@H](O)CO

>  <Value observed>
0.0215

$$$$
>  <Compound>
Cc1cc(N2CCN(c3ncccn3)CC2)n2c(nc3ccccc32)c1C#N

>  <Value observed>
0.0845

$$$$
